target: human S1P1 receptor (Homo sapiens, UniProt P21453); construct: membranes of cells stably expressing the receptor; assay: GTP γ35S binding assay for S1P1 activity; conditions: membranes of cells stably expressing the S1P1 receptor
Sequence (P21453 whole entry): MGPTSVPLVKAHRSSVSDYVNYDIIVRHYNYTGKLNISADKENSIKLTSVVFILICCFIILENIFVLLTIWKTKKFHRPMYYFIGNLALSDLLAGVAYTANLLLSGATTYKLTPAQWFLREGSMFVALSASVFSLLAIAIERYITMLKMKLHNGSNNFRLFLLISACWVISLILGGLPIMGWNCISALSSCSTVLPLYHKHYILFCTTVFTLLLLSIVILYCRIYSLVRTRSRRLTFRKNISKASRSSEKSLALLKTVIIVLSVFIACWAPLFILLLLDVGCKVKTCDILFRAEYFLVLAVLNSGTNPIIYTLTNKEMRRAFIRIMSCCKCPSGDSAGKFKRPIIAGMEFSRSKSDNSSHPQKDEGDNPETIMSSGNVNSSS
measurement.label: EC50 (nM)

(1) O=P(O)(O)OCCNCc1ccc(CCCCCCc2ccccc2)c2ccccc12
(2) O=P(O)(O)CCCNCc1ccc(C#CCCCc2ccccc2)c2cccnc12
// pick larger EC50 from pair: 1 vs 2 Record your answer as the label of the chosen record.
2

(A) O=P(O)(O)OCCNCc1ccc(CCCCCCc2ccccc2)c2cccnc12
(B) COc1cccc(CCCCC#Cc2ccc(CNCCCP(=O)(O)O)c3ncccc23)c1
(C) O=P(O)(O)CCCNCc1ccc(C#CCCCCCc2ccccc2)c2cccnc12
List these items ordered by EC50, big to small. Please, when replying, give the labels in the order that was requested.
C, B, A

(P) CCCCCCCCC#Cc1ccc(CNCCCP(=O)(O)O)c2ncccc12
(Q) O=P(O)(O)CCCNCc1ccc(C#CCCCCc2ccccc2)c2ccccc12
Which entry shows the lesser value of EC50 here, P or Q ? Record your answer as the label of the chosen record.
P

---

biological target: human S1P1 receptor (Homo sapiens, UniProt P21453); construct: membranes of cells stably expressing the receptor; assay: GTP γ35S binding assay for S1P1 activity; details: membranes of cells stably expressing the S1P1 receptor
pEC50: −log10 of the molar value.
measurement.label: pEC50

Below, 5 molecules whose answers are already recorded.
{"molecule": "COc1cccc(CCCCCCc2ccc(CNCCCP(=O)(O)O)c3ncccc23)c1 [Compound 13]", "recorded.measurement": 8.11}
{"molecule": "O=P(O)(O)CCCNCc1ccc(CCCCCCCc2ccccc2)c2cccnc12 [Compound 5]", "recorded.measurement": 6.76}
{"molecule": "O=P(O)(O)CCCNCc1ccc(CCCCCCc2ccccc2)c2ccccc12 [Compound 19]", "recorded.measurement": 8.25}
{"molecule": "CCCCCCCC/C=C/c1ccc(CNCCCP(=O)(O)O)c2ccccc12 [Compound 15]", "recorded.measurement": 6.86}
{"molecule": "CCCCCCCCCCc1ccc(CNCCCP(=O)(O)O)c2ncccc12 [Compound 1]", "recorded.measurement": 8.82}

(A) O=P(O)(O)CCCNCc1ccc(CCCCCCc2ccccc2)c2cccnc12 [Compound 7]
(B) O=P(O)(O)CCCNCc1ccc(C#CCCCCc2ccccc2)c2cccnc12 [Compound 4]
Which entry shows the lesser value of pEC50 here, A or B ? Record your answer as the label of the chosen record.
B
